src = patent US10100050B2

Form field: IC50 (one value per entry).
biological target: p38alpha (Homo sapiens, UniProt Q16539)
Sequence (Q16539 whole entry): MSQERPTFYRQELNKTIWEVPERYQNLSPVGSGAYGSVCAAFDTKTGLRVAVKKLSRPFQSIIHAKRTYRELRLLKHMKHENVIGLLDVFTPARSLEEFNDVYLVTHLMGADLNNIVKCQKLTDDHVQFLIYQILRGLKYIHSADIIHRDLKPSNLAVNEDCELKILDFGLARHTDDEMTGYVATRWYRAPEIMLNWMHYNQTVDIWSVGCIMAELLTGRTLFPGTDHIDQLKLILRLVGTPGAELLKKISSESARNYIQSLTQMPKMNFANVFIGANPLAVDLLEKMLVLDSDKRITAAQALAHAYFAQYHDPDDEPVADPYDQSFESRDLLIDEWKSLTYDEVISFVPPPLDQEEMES
Structures can show the parent of a compound that is named as a salt.

Compound	Target Desc	IC50
C[C@H]1CCCCN1c1nnc2ccc(O[C@@H]3CC[C@H](NC(=O)Nc4cc(C(C)(C)C)ccc4CN4CCOCC4)c4ccccc43)cn12	p38alpha (Homo sapiens, UniProt Q16539)	1 to 10 nM
CN1CCC[C@@]1(C)c1nnc2ccc(O[C@@H]3CC[C@H](NC(=O)Nc4cc(N5CCOCC5)cc(C(C)(C)C)c4)c4ccccc43)cn12	p38alpha (Homo sapiens, UniProt Q16539)	< 1 nM
C[C@H]1CCCCN1c1nnc2ccc(O[C@@H]3CC[C@H](NC(=O)Nc4cc(COCCN(C)C)cc(C(C)(C)C)c4)c4ccccc43)cn12	p38alpha (Homo sapiens, UniProt Q16539)	< 1 nM
CN1CCC[C@H]1c1nnc2ccc(O[C@@H]3CC[C@H](NC(=O)Nc4cc(C(=O)NCCO)cc(C(C)(C)C)c4)c4ccccc43)cn12	p38alpha (Homo sapiens, UniProt Q16539)	< 1 nM
CN1CCC[C@@]1(C)c1nnc2ccc(O[C@@H]3CC[C@H](NC(=O)Nc4cc(COCCN5CCCCC5)cc(C(C)(C)C)c4)c4ccccc43)cn12	p38alpha (Homo sapiens, UniProt Q16539)	< 1 nM
CNS(=O)(=O)c1cc(NC(=O)N[C@H]2CC[C@@H](Oc3ccc4nnc([C@@H]5CCCN5C)n4c3)c3ccccc32)cc(C(C)(C)C)c1	p38alpha (Homo sapiens, UniProt Q16539)	< 1 nM
C[C@H]1CCCCN1c1nnc2ccc(O[C@@H]3CC[C@H](NC(=O)Nc4cc(CN(C)C)cc(C(C)(C)C)c4)c4ccccc43)cn12	p38alpha (Homo sapiens, UniProt Q16539)	< 1 nM
CN1CCC[C@@]1(C)c1nnc2ccc(O[C@@H]3CC[C@H](NC(=O)Nc4cc(C(C)(C)C)ccc4CN4CCOCC4)c4ccccc43)cn12	p38alpha (Homo sapiens, UniProt Q16539)	1 to 10 nM
CCS(=O)(=O)Nc1cc(C(C)(C)C)cc(NC(=O)N[C@H]2CC[C@@H](Oc3ccc4nnc(C(C)(C)N(C)C)n4c3)c3ccccc32)c1OC [Example 13, hydrochloride salt]	p38alpha (Homo sapiens, UniProt Q16539)	1 to 10 nM
CCN1CCC[C@@]1(C)c1nnc2ccc(O[C@@H]3CC[C@H](NC(=O)Nc4cc(NS(C)(=O)=O)cc(C(C)(C)C)c4)c4ccccc43)cn12	p38alpha (Homo sapiens, UniProt Q16539)	< 1 nM
Cc1c(NC(=O)N[C@H]2CC[C@@H](Oc3ccc4nnc([C@]5(C)CCCN5C)n4c3)c3ccccc32)cc(C(C)(C)C)cc1NS(C)(=O)=O	p38alpha (Homo sapiens, UniProt Q16539)	< 1 nM
CN1CCC[C@@]1(C)c1nnc2ccc(O[C@@H]3CC[C@H](NC(=O)Nc4cc(NS(=O)(=O)C5CC5)cc(C(C)(C)C)c4)c4ccccc43)cn12	p38alpha (Homo sapiens, UniProt Q16539)	1 to 10 nM
